Quick list: MIC per entry.
- Test system: Pseudomonas aeruginosa PP-6
- assay.details: MIC, Pseudomonas aeruginosa PP-6*
- experimental.setup: PP6, read-out: minimum inhibitory concentration (MIC)
Give just the numeric value; µg/mL need not be written.

Query (compound): NC[C@H]1O[C@H](O[C@H]2[C@H](O)[C@@H](O[C@H]3O[C@H](CO)[C@@H](O)[C@H](N)[C@H]3O)[C@H](NCC3(O)CCNC3)C[C@@H]2N)[C@H](N)C[C@@H]1O (some centres unmarked) [Test compound (2)] ; field requested: MIC
0.78

Which MIC value is on record for NC[C@H]1O[C@H](O[C@H]2[C@H](O)[C@@H](O[C@H]3O[C@H](CO)[C@@H](O)[C@H](N)[C@H]3O)[C@H](NCC3(O)CNC3)C[C@@H]2N)[C@H](N)C[C@@H]1O [Test compound (1)] ?
0.78

Recorded MIC of NC[C@H]1O[C@H](O[C@H]2[C@H](O)[C@@H](O[C@H]3O[C@H](CO)[C@@H](O)[C@H](N)[C@H]3O)[C@H](NCC3(O)CCNC3)C[C@@H]2N)[C@H](O)[C@@H](O)[C@@H]1O (some centres unmarked) [Test compound (4)] , please.
3.13

# query: MIC of entry NC[C@H]1O[C@H](O[C@H]2[C@H](O)[C@@H](O[C@H]3O[C@H](CO)[C@@H](O)[C@H](N)[C@H]3O)[C@H](NCC3(O)CNC3)C[C@@H]2N)[C@H](O)[C@@H](O)[C@@H]1O [Test compound (3)]
3.13

Which MIC value is on record for NC[C@H]1O[C@H](O[C@H]2[C@H](O)[C@@H](O[C@H]3O[C@H](CO)[C@@H](O)[C@H](N)[C@H]3O)[C@H](N)C[C@@H]2N)[C@H](N)C[C@@H]1O [Test compound (5), tobramycin, reference compound] ?
50
